- test.target: 5-hydroxytryptamine receptor 7 (Homo sapiens)
- Sequence (P34969 whole entry): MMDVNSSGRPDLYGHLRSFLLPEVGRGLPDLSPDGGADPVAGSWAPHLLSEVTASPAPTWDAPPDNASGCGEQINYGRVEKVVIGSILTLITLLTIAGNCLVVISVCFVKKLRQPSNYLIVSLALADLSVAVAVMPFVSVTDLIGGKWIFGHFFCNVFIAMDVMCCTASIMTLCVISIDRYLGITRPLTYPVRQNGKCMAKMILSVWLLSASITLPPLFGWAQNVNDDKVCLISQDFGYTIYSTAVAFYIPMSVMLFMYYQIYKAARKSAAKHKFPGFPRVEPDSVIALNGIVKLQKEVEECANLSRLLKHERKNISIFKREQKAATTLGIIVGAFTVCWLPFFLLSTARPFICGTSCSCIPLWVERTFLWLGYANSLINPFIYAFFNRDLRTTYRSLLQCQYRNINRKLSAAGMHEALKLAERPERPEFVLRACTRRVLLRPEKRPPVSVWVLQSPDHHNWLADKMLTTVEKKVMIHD
measured.endpoint: pKi
Note on units: pKi is unitless, being -log10 of a concentration expressed in mol/L.

The compound listed as O=C(OCCN1CCCC1)N1c2ccccc2Sc2ccccc21 shows pKi equal to 6.48

* * *

- test.target: 5-hydroxytryptamine receptor 2A (Homo sapiens)
- Sequence (P28223 whole entry): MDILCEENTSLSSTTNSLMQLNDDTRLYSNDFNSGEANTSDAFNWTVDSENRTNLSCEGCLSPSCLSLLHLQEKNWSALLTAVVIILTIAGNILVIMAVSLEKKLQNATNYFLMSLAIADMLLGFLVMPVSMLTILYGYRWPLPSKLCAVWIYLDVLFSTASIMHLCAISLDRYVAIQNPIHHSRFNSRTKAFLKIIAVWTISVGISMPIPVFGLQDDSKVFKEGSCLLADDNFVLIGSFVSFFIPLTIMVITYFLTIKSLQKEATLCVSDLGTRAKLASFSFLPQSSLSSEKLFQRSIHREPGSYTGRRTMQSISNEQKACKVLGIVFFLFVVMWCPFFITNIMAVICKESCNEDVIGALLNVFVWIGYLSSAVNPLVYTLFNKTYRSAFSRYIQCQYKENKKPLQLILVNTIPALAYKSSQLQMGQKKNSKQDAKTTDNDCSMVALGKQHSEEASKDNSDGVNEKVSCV
measured.endpoint: Ki (µM)
Entry rule: numbers only, all in µM.

Record summary for O=C(CCCc1ccccc1)N1c2ccccc2Sc2ccccc21 : reported Ki = 1.6

Form: compound = O=C(OCCN1CCCC1)N1c2ccccc2Sc2ccccc21 ; Ki = 2.4

response.value for CCN(CC)CCCOC(=O)N1c2ccccc2Sc2ccccc21 (field: Ki) = 3.6

For reference, reported Ki for O=C(C1CCCCCC1)N1c2ccccc2Sc2ccccc21 stands at 1.7

GET /value?item= CC(C(=O)N1c2ccccc2Sc2ccccc21)c1ccccc1 (stereo not given) &field=Ki returns 0.18
